Molecular target: HDAC10 (Homo sapiens, UniProt Q969S8)
Sequence (Q969S8 whole entry): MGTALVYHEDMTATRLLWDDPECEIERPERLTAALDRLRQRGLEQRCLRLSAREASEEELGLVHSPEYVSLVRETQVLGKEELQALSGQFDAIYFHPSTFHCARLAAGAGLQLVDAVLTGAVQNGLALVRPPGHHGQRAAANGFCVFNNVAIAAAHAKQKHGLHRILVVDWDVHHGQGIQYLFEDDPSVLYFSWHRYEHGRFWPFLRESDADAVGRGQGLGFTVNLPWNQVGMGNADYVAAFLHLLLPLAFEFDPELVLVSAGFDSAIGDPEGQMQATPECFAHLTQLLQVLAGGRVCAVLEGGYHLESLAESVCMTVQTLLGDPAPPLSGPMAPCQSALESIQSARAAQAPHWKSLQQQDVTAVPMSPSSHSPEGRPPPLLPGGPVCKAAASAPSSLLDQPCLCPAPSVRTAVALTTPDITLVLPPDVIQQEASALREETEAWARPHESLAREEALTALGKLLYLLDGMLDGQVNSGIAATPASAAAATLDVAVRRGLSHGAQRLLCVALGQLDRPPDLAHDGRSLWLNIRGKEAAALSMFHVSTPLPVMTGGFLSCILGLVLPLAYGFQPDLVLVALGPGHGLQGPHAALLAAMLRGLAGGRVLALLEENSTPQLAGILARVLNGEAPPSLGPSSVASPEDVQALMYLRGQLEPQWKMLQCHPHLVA
Conditions: 200 ug/ml
Label rule, in plain words: HDAC 10 activity, % of water-treated controls of 90% and up is condition met, under 90% is condition not met.

[ask] Form field: HDAC 10 activity, % of water-treated controls at least 90%? Entry: CCCC(=O)[O-].[Na+] [Sodium butyrate, reference compound]
[reply] condition met

[ask] Form field: HDAC 10 activity, % of water-treated controls at least 90%? Entry: CCCC(=O)NCCCC[C@H](NC(=O)CCC)C(=O)[O-].CCCC(=O)NCCCC[C@H](NC(=O)CCC)C(=O)[O-].[Zn+2] [Zn di-(di-n-butyryl lysinate), Zinc di-(di-n-butyryl lysinate)]
[reply] condition not met

[ask] Form field: HDAC 10 activity, % of water-treated controls at least 90%? Entry: CCCC(=O)NCCCC[C@H](NC(=O)CCC)C(=O)[O-].CCCC(=O)NCCCC[C@H](NC(=O)CCC)C(=O)[O-].[Mg+2] [Mg di-(di-n-butyryl lysinate), magnesium di-(di-n-butyryl lysinate)]
[reply] condition met

[ask] Form field: HDAC 10 activity, % of water-treated controls at least 90%? Entry: CCCC(=O)N[C@@H](CC(C)C)C(=O)[O-].CCCC(=O)N[C@@H](CC(C)C)C(=O)[O-].[Zn+2] [Zn di-(n-butyryl leucinate), Zinc di-(n-butyryl leucinate)]
[reply] condition not met

Data provenance is patent US20260041620A1.
